Taken from patent US20250250357A1.

tested-target: T1, monkey MSLN full-length protein (NCBI: XP_028696439.1) expressed on HEK293T-monkey MSLN cells (monkey)
T1 construct: Whole encoded precursor
T1 chain: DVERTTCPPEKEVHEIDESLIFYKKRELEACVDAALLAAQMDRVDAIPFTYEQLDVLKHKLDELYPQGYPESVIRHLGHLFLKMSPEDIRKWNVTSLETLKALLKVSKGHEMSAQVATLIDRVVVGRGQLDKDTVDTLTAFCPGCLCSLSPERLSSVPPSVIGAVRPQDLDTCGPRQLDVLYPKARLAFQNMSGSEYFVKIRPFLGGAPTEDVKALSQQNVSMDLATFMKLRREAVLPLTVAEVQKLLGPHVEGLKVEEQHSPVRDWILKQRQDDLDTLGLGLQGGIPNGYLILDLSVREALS
protocol-notes: FACS on HEK293T-monkey MSLN cells
The entries below come with measured Maximum mean fluorescence intensity values attached.
// return a plain number; no unit text

# count of solved cases: 3
binder | Maximum mean fluorescence intensity
S009-F3.80.22 (antibody, human IgG1, kappa, V domains shown, human-murine chimeric antibody, human IgG1/kappa constant regions) VH: QVQLQQSGAELVRPGASVTLSCKASGYTFTDYEIHWVKQTPVHGLEWIGAFDPEIGGSAYNQKFKDRATLTADKSSSTAYMELHSLTAEDSAVYYCTDYYGSSSGYFDVWGTGTTVTVSS VL: DVVMTQTPLSLPVSLGDQASISCRSSQSLEHNNGNTYLHWFLHKPGQSPKLLIYKVSNRFSGVPDRFSGSGSGTDFTLKISRVEAEDLGVYFCSQSTHVPFTFGSGTKLEIKR | 57
S009-F3.74.20 (antibody, human IgG1, kappa, V domains shown, human-murine chimeric antibody, human IgG1/kappa constant regions) VH: RVQLQQSGAELVRPGASVTLSCKASGYTFTDSEMHWVKQTPVHGLEWIGAIDPEIDGTAYNQNFRDKAILTADKSSSTAYMELRSLTSEDSAVYYCTTYFGSGYGYFDVWGTGTTVTVSS VL: DVVMTQTPLSLSVSLGDQASISCRSSQSLVYSNGNTYLHWFLQKPGQSPKLLIYKVSNRFSGVPDRFSGSGSGTDFTLKINRVEAEDLGVYFCSQSTHIPFTFGAGTKLELKR | 188
S009-F3.38.10 (antibody, human IgG1, kappa, V domains shown, human-murine chimeric antibody, human IgG1/kappa constant regions) VH: EVQLQQSGPVLVKPGASVKMSCEASGYIFTDYYMNWVKKSHGKSLEWIGVINPKNGVISHNQKFKGKATLTVDKSSNTAYMELSSLTSEDSAVYYCANYGSRFYAMDYWGQGTSVTVSS VL: DVVMTQTPLSLPVSLGDQASISCRSSQSLIHSDGNTYLQWYLQKSGQSPKLLIYKVSNRFSGVPDRFSGSGSGTDFTLKISRVETEDLGVYFCSQTTHVPFTFGSGTKLEIKR | 22300

Continue with the next binder.
Which Maximum mean fluorescence intensity value is on record for S009-F3.7.3 (antibody, human IgG1, kappa, V domains shown, human-murine chimeric antibody, human IgG1/kappa constant regions) VH: EVNFEESGGGLVQPGGSMKLSCVASGFTFSNYWMNWVRQSPEKGLEWVAQIRLKSDNYATHYAESVKGRFTISRDDFKSSVYLQMNNLRAEDTGIYYCTVGTGGYWGQGTTLTVSS VL: DIVLTQSPASLAMSLGKRATISCRASESVSIVGTNVIHWFQQKPGQPPKLLIYHASNLETGVPARFSGSGSGTDFTLTIDPVEEDDVAIYHCLQSRKIPWTFGGGTKLEIKR ?
7100
